Item-by-item account of % mortality
System: ticks (Ornithodoros moubata Murray)
Assay: Ticks, first instar, fed on blood containing test compound
Assay type: in vivo
Conditions: 5.0 μg per 0.3 ml blood, 14 days at 30° C.
Reply with just the number (in %).

{"columns": ["compound", "% mortality, %"],
 "data": [
  ["CCCCCC(O)/C=C/C[C@H](C)CCCC(C)(C)O (some centres unmarked)", 0]
]}

In: Given the entry `C[C@@H](C/C=C/C(=O)CCc1ccccc1Cl)CCCC(C)(C)O` , report its measured % mortality.
Out: 0

In: Now consider `C[C@@H](C/C=C/C(=O)CCc1cccc(Cl)c1)CCCC(C)(C)O` and answer again.
Out: 0

----------
We begin with a simple list: items and their reported mortality at 0.5 µg/fly.
System: houseflies (Musca domestica L.)
Test: Houseflies, injection in dorsal thorax, mortality and egg hatch
Type: in vivo
Settings: Musca domestica, 24 h, 0.5 μg/fly
Report as a plain number; the unit % is understood.

In: Query: mortality at 0.5 µg/fly; subject: CCCCCC(O)/C=C/C[C@H](C)CCCC(C)(C)O (stereo partly drawn)
Out: 70

In: What do we get for `C[C@@H](C/C=C/C(=O)CCc1ccccc1Cl)CCCC(C)(C)O` ?
Out: 50

In: And for C[C@@H](C/C=C/C(O)CCCc1ccccc1)CCCC(C)(C)O (stereo partly drawn) ?
Out: 30

In: Ok, now `C[C@@H](C/C=C/C(=O)CCc1ccc(Cl)cc1)CCCC(C)(C)O`
Out: 80

In: Consider next the compound `C[C@@H](C/C=C/C(=O)CCc1ccccc1)CCCC(C)(C)O` in the same way.
Out: 60

In: Next record, please: C[C@@H](C/C=C/C(O)COc1ccccc1)CCCC(C)(C)O (stereo partly drawn)
Out: 50

----------
Tested on: uterine contraction in rats
Assay: Stimulation of uterine contraction in rats compared with PGE1
Assay type: in vivo, rat
Settings: intravenous; ratio to PGE1
Experimental: Pregnant anaesthetised rats were treated with the compounds of the invention by the intravenous or intravaginal route and the activity of each compound in stimulating uterine contraction was compared with that of a standard compound, the expensive prostaglandin E1 (PGE1), and expressed as a ratio.
# Activity (compared with PGE1) per record follows
Output: the number by itself.

{"columns": ["compound", "testTarget", "Activity (compared with PGE1)"],
 "data": [
  ["C[C@@H](C/C=C/C(=O)Cc1ccccc1)CCCC(C)(C)O", "uterine contraction in rats", 0.09],
  ["C[C@@H](C/C=C/C(=O)COc1ccccc1Cl)CCCC(C)(C)O", "uterine contraction in rats", 1.2],
  ["C[C@@H](C/C=C/C(O)CCc1ccccc1)CCCC(C)(C)O (stereo partly drawn)", "uterine contraction in rats", 0.14],
  ["C[C@@H](C/C=C/C(O)COc1ccccc1)CCCC(C)(C)O (stereo partly drawn)", "uterine contraction in rats", 0.14],
  ["CCCCCC(O)/C=C/C[C@H](C)CCCC(C)(C)O (stereo partly drawn)", "uterine contraction in rats", 0.05],
  ["C[C@@H](C/C=C/C(=O)CCc1ccccc1)CCCC(C)(C)O", "uterine contraction in rats", 0.67],
  ["C[C@@H](C/C=C/C(=O)COc1cccc(Cl)c1)CCCC(C)(C)O", "uterine contraction in rats", 0.91],
  ["C[C@@H](C/C=C/C(=O)COc1ccc(Cl)cc1)CCCC(C)(C)O", "uterine contraction in rats", 0.32]
]}

In: Any idea what its Activity (compared with PGE1) is? The compound is `C[C@@H](C/C=C/C(=O)CCCc1ccccc1)CCCC(C)(C)O`
Out: 0.91

In: Now this one: `CCCCCC(=O)/C=C/C[C@H](C)CCCC(C)(C)O`
Out: 0.02

In: And the next one, `C[C@@H](C/C=C/C(=O)COc1ccccc1)CCCC(C)(C)O` ?
Out: 3.7

In: And `CCCCC(C)(C)C(=O)/C=C/C[C@H](C)CCCC(C)(C)O` ?
Out: 0.57
